system-name: T1, human plasmin (human, UniProt P00747 97-810)
T1 construct: Plasmin is a two-chain enzyme derived from plasminogen; also called Pm
T1 sequence (P00747 97-810 limits assumed): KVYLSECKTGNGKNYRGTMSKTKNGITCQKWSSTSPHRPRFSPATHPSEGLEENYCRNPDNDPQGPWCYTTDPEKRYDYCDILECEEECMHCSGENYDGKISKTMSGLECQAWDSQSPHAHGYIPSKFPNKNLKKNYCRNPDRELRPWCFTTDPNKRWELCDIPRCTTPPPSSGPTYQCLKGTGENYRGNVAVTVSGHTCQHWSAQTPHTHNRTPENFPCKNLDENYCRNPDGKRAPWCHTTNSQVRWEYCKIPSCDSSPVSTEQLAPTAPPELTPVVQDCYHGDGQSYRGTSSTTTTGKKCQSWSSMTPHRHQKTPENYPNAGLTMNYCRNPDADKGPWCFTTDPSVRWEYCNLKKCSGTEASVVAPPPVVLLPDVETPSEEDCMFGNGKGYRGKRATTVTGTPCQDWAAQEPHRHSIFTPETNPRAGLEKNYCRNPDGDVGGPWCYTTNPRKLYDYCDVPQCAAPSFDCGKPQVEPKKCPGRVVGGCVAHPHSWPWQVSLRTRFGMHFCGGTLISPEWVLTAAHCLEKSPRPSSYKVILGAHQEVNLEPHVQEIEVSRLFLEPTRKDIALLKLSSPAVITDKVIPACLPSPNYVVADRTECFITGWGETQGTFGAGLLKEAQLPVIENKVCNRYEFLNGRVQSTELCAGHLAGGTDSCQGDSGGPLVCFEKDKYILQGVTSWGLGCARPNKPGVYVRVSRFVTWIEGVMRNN
experiment-description: amidolytic inhibition of 3 nM plasmin, tight-binding equation
recorded-endpoint: Ki (nM)
The response must be a number in nM with no trailing unit.

Sample KD1-Y11T/L17R-KT (Pichia) (designed binder, 60-residue double mutant without tag; also called KD1DM; P. pastoris expressed KD1-Y11T/L17R-KT) NAEICLLPLDTGPCRARLLRYYYDRYTQSCRQFLYGGCEGNANNFYTWEACDDACWRIEK ; Ki observed: 0.59

Recorded Ki (binder KD1-Y11T/L17R-KT (E. Coli) (designed binder, also called KD1DM; E. coli expressed KD1-Y11T/L17R-KT) MGSSHHHHHHSSGHIDDDDKNAEICLLPLDTGPCRARLLRYYYDRYTQSCRQFLYGGCEGNANNFYTWEACDDACWRIEK ): 0.59

Ki reading for KD1-WT (other, also called Wild-type KD1; E. coli expressed KD1-WT (IIa cleavage site); not shown: N-terminal residues left from the IIa (thrombin) cleavage site) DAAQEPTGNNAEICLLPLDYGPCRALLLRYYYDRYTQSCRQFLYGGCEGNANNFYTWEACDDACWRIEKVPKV : 6

Measured Ki, KD1-L17R-KT (designed binder, also called KD1SM; single mutant) MGSSHHHHHHSSGHIDDDDKNAEICLLPLDYGPCRARLLRYYYDRYTQSCRQFLYGGCEGNANNFYTWEACDDACWRIEK : 0.9

Origin of the recorded values: patent US20230331817A1
